Hi there, I'd appreciate the recorded apparent KD of K4 kissing-loop reporter for every entry that follows.
Test system: K4 kissing-loop RNA reporter;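 also: bound reporter read as fluorescence of individual clusters on recovered sequencing chips by microscopy, with normalized cluster intensities fitted with a binding model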
Experiment: apparent KD of K4 kissing-loop reporter; higher = weaker reporter binding
Conditions: Eterna round: R107; input ligand: arginine 13.2 mM
Respond with the bare value in nM.

Query: What apparent KD of K4 kissing-loop reporter value was documented for this sequence, UGACUGGACUGAAGGAGCGAGCGAGACAAAGUCUCGGAAAUUCAGUGAUGUUGAUAUAUAACUCAGGUAGGUCGCAGUCUAGUCU [ArgBS 6 #SwitchBubble #StaticStem] ?
Result: 411

Query: Return reported apparent KD of K4 kissing-loop reporter; argument: GCAUGACGGUAAGGAUAUAGAUAAUCCUUAUAUACGUCGAGUGAUGUUCGAUGUGCCAAGGCACAUCUAGAAGGUACUGUUAGGU [Same State FMN B GF 18]
Result: 760

Query: Could you tell me which apparent KD of K4 kissing-loop reporter is on file for AGUCGCAGUGAUGUUGCGAUUCCGUUGAGGGAGGAUAUUGGUAAUACAAGAAGGCCCGGCUACGGGAGAUGUUAGCAAUAGGGCC [Exclusion FMN A GF20] ?
Result: 94.5

Query: Consider the sequence ACCCUGGGUCCCGAAAGGGACCCAGGGAGUGAGGAUAUGUGGAAACACAGAAGGCACAGCACAGUGAUGUUGUGCGACGAAAGUC [#02 K4 FMN A Same State] and give its measured apparent KD of K4 kissing-loop reporter.
Result: 97.5

Query: Bench note: what apparent KD of K4 kissing-loop reporter did UCUUAACUAAAAUAAUGGGAUACCAGUGAUACCAGCCAUAUGCAGGGCCCUUGGCAGCACCCUUGGCAGCCUCGAGUGAUGUUCG [KL-SSTheo-A7 #DoubleAptamer] show?
Result: 292

Query: Sample UUAUAUCUCUGACUUUCACUUUGCGUAUCUGAGGAUAUCUGAAUUCAGAGAAGGCAGUGAUGUUGCUUUGCUGUGUGUCUGAGAA [AK2 Exc FMN A] — what was its apparent KD of K4 kissing-loop reporter?
Result: 464

Query: Recorded apparent KD of K4 kissing-loop reporter for CUUGUACAAGUGAUGUUUGUUAUAUCCGAAGGAGCGUCGUAAUAGACAGGUAGGUCGCGGAGUAAGAUAGUUUUUUUAAUAUCAU [JR_Nu_SSArginiA_Sub029] , please?
Result: 338

Query: I am curious: what apparent KD of K4 kissing-loop reporter value has been reported for CCAUUCUGUUACGAUACCAGUCAAAUAUAUUUGAUCAAUACCCUCGCCGAGUGAUGUUCGGACCCUUGGCAGCGUCUGGGACAGG [ccdfmullin] ?
Result: 561

Query: Dear colleague, I am looking for the recorded apparent KD of K4 kissing-loop reporter of the following sequence: ACGCUGUGAAUAACACAGCGAAUAAAUUCGCGAGGACCGGUACGGCCGCCACUCGCUAACUGCGAGUGAUGUUCGAUAAUAAAAU [Mat - Mod of OpenEnded 3 - D13]
Result: 80.8

Query: Reported apparent KD of K4 kissing-loop reporter, sequence GGGCGUGGCGCGGCCGCCACUGGGCCUGGGCGCUCGCUGAGUGAUGUUCGUCGGCGGUUGGGUCGUAGGACCGGGUGCUGGUUGG [BDazzled - #8 SS Tryptophan B] : ____
Result: 199

Query: // apparent KD of K4 kissing-loop reporter lookup, key: AAACAUUGGUCUGAUACCAGUUAGACCGAUAAGGUCAAAACUGGAGUGAUGUUCCCAAAUAACCCUUGGCAGCAGACCGAUGAAA [MAT - Same State Theophlline B - Mod of Eli - D10]
Result: 66
